- System: MDA-MB-468 breast
- Assay Summary: NCI tumour cell line growth inhibition, 48 h
Known GI50 of a selection of molecules

Molecule	GI50
NCCOc1ncccc1/C=C1\c2ccccc2-c2ccc(F)cc21	1330 nM
c1ccc(-c2c(-c3ccccc3)[n+](Cc3ccc4ccccc4c3)c(-c3cccc4ccccc34)n2Cc2ccc3ccccc3c2)cc1	47.3 nM
Cc1cc(C)c(-c2cc(O)c(-c3c(C)cc(C)cc3C)cc2O)c(C)c1	1960 nM
O=C(CNc1nc(-c2cccc([N+](=O)[O-])c2)cs1)Nc1cccc([N+](=O)[O-])c1	1950 nM
CC(C)(C)c1ccc(C(=O)Nc2sc3c(c2C#N)CCC(=O)C3)cc1	1330 nM
COc1ccc(C2CC(c3cc(Cl)c(C)cc3O)=NN2c2ccc(S(N)(=O)=O)cc2)cc1OC (centres undefined)	2580 nM
CCCCCCCCc1ccc(OCCOCC[N+](C)(C)CC)cc1 (tested in a mixture with another compound)	430 nM
CCCC(c1nnnn1C1CCCCC1)N1CCN(C(=O)c2ccco2)CC1 (centres undefined)	> 100000 nM
Nc1cc2c([nH]c[n+]2CC#CCCl)c(SCC#CCCl)n1	734 nM
COCC(=O)Oc1cc(-c2ccc(C)cc2C)c(OC(=O)COC)c(-c2ccc(C)cc2C)c1	2790 nM
O=S1CCN(Cc2ccc(-c3ccc4ncnc(Nc5ccc(OCc6cccc(F)c6)c(Cl)c5)c4c3)o2)CC1	5.68 nM
COc1cc(/C=N/Nc2ncnc3[nH]ncc23)ccc1O	9900 nM
O=S1CCN(Cc2ccc(-c3ccc4ncnc(Nc5ccc(OCc6ccccc6)c(Cl)c5)c4c3)o2)CC1	44.9 nM
O=C1Nc2ccccc2/C1=C/C(=N/c1nnc(-c2ccccc2)s1)c1ccccc1	2710 nM
Cn1ncc2c(Sc3ccc(Cl)cc3)ncnc21	20700 nM
C=C1C(=O)O[C@H]2[C@H]1CC/C(COC(=O)CCCCCCC(=O)OC/C1=C/CC[C@@]3(C)O[C@H]3[C@H]3OC(=O)C(=C)[C@@H]3CC1)=C\CC[C@@]1(C)O[C@@H]21	2160 nM
O=C(CCl)Nc1ccc2c(c1)C(=O)c1ccccc1C2=O	1760 nM
COc1ccc(/C=C(\C#N)c2ccc(OC)cc2)cc1	1610 nM
C=C(C)C(=O)Oc1ccc(N=Nc2ccc(C)cc2)ccc1=O	2800 nM

* * *

Known log10(TGI) of a selection of compounds
- Tested on: MDA-MB-468 breast
- Assay Summary: NCI tumour cell line growth inhibition, 48 h
Attribute Measured: log10(TGI) (log10 of the value in µM)

Compound	log10(TGI)
COc1ccc(/C=C(\C#N)c2ccc(OC)cc2)cc1	1.54
CCN(Cc1ccncc1)c1ccc(CO)c(Cl)c1	-0.79
COc1ccc(/C=C/c2nnc(/C=C/c3ccc(OC)c(OC)c3)o2)cc1OC	1.44
c1ccc(-c2c(-c3ccccc3)[n+](Cc3ccc4ccccc4c3)c(-c3cccc4ccccc34)n2Cc2ccc3ccccc3c2)cc1	-0.55
COc1ccc2nc(NNC(=O)c3cnccn3)c3cccn3c2c1	0.29
Cc1ccc(C(=O)Nc2ccc(CNCCN3CCNCC3)c(C(F)(F)F)c2)cc1C#Cc1cnc2cccnn12	0.52
COc1ccc(C2CC(c3cc(Cl)c(C)cc3O)=NN2c2ccc(S(N)(=O)=O)cc2)cc1OC (stereo unspecified)	0.98
NCCOc1ncccc1/C=C1\c2ccccc2-c2ccc(F)cc21	0.45
Cn1cc(-c2cc3nc(-c4cn(C)c5ncc(Br)cc45)cc(N)n3n2)c2cc(Cl)ccc21	0.43
